- Tested on: L1210
- assayProcedure: Antileukemic activity against ip implanted mouse L1210 cells in C3H/DBA2 F1 hybrid hybrid mouse assessed as increase life span treated ip after 24 hrs after tumor inoculation and continued for 5 days
- Assay type: functional
outcomeMeasure: ILS (%)
Express your answer in %, writing the number without its unit.

COc1cc(NS(C)(=O)=O)ccc1Nc1c2ccccc2nc2ccccc12; 114
CNC(=O)c1cccc2c(Nc3ccc(NS(C)(=O)=O)cc3OC)c3ccccc3nc12.Cl; 166
Cc1cc(NS(C)(=O)=O)ccc1Nc1c2ccccc2nc2c(OCC(O)CO)cccc12.Cl (centres undefined); 110
COCCS(=O)(=O)Nc1ccc(Nc2c3ccccc3nc3ccccc23)cc1.Cl; 79
COc1cc(NS(C)(=O)=O)ccc1Nc1c2ccccc2nc2c(C(=O)NCC(N)=O)cccc12.Cl; 105

input: Find the measured ILS of "CCOC(=O)NNc1ccc(Nc2c3ccccc3nc3ccccc23)cc1.Cl" with L1210 as test system.
output: 67

input: Specify the recorded ILS for "COc1cc(NS(C)(=O)=O)ccc1Nc1c2ccccc2nc2c(C(=O)N(C)C)cccc12.Cl" , system: L1210.
output: 84

input: Give ILS for "COc1cc(NS(C)(=O)=O)ccc1Nc1c2ccccc2nc2c(OCCO)cccc12.Cl" tested on L1210.
output: 112

input: Give ILS; test system L1210; molecule COc1cc(NS(C)(=O)=O)ccc1Nc1c2ccccc2nc2c(OCC(O)CO)cccc12.Cl (centres undefined)
output: 123

input: Would you please give the reported ILS of "CS(=O)(=O)NCCS(=O)(=O)Nc1ccc(Nc2c3ccccc3nc3ccccc23)cc1.Cl" with L1210?
output: 33

input: Quote ILS with test system L1210 for "CC(=O)NCCCS(=O)(=O)Nc1ccc(Nc2c3ccccc3nc3ccccc23)cc1.Cl"
output: 26

input: # return ILS of "Br.COc1cc(NS(C)(=O)=O)ccc1Nc1c2ccccc2nc2cc(CCC(N)=O)ccc12" (system: L1210)
output: 58

input: Write down the reported ILS (system: L1210) of "CNC(=O)Nc1ccc(Nc2c3ccccc3nc3ccccc23)c(OC)c1.Cl"
output: 72

input: Please report the measured ILS for "Br.COc1cc(NS(C)(=O)=O)ccc1Nc1c2ccccc2nc2c(CCC(N)=O)cccc12" tested on L1210.
output: 94

input: Please report ILS with L1210 for item "CS(=O)(=O)Nc1ccc(Nc2c3ccccc3nc3ccccc23)cc1" .
output: 107
